Value source: paper PMC7994712

# STUDY_TARGET: Somatostatin receptor 5 (SSTR5) (human), P35346
# Sequence (P35346 whole entry): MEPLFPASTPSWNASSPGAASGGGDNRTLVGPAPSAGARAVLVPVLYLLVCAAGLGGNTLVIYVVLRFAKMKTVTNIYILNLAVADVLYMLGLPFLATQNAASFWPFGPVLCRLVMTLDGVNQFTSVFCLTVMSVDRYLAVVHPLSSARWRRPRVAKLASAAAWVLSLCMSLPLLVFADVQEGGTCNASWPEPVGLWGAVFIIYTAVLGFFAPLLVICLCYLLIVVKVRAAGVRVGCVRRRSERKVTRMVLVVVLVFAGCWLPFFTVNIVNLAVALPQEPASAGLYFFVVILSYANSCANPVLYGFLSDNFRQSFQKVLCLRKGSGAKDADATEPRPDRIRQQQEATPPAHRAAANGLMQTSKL
# CONDITION_PARAMETERS: L-mesityl alanine (Msa) in place of Phe5; D-Trp at position 7; disulfide bridge between the two cysteines

| BINDER | IC50 [nM] |
| --- | --- |
| PCKNFFWKTFTSCK [Cortistatin analogue 4] | 4 |
